Entry source: patent US9988381B2

- MEASURED_ON: c-Met kinase domain recombinant protein (Homo sapiens, UniProt P08581)
- Construct: 50 μL diluted solution of c-Met kinase domain recombinant protein in reaction buffer was added to initiate the reaction
- Sequence (P08581 1078-1345 limits assumed): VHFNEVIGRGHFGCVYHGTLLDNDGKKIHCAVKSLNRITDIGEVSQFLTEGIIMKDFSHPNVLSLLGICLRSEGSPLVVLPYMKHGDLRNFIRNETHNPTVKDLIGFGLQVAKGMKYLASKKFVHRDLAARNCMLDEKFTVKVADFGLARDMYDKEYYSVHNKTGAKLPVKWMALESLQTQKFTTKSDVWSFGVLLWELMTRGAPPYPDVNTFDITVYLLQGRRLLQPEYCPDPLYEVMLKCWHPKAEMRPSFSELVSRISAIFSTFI
- EXPERIMENT: biochemical
- EXPERIMENTAL_SETUP: read-out: Average inhibition rate at 0.1 μM (%)
TEST_READOUT: inhibition at 0.1 µM (%)

Take a look at these entries with their results.
STRUCTURE_SMILES: Cn1cc(-c2cnc3cnn(S(=O)(=O)c4cnc5ccc(OC(=O)c6ccco6)cn45)c3c2)cn1
TEST_READOUT: inhibition at 0.1 µM
OBSERVED_RESULT: 99.6
//
STRUCTURE_SMILES: CC(C)N1CCC(n2cc(-c3cnc4cnn(S(=O)(=O)c5cnc6ccc(C(F)(F)F)cn56)c4c3)cn2)CC1
TEST_READOUT: inhibition at 0.1 µM
OBSERVED_RESULT: 52.3
//
STRUCTURE_SMILES: O=[N+]([O-])c1ccc2ncc(S(=O)(=O)n3ncc4ncc(-c5ccc(C(F)(F)F)cc5)cc43)n2c1
TEST_READOUT: inhibition at 0.1 µM
OBSERVED_RESULT: 46.6
//
STRUCTURE_SMILES: CN1CCN(C(=O)c2ccc(-c3cnc4cnn(S(=O)(=O)c5cnc6ccc(-c7cnn(C)c7)cn56)c4c3)cc2)CC1
TEST_READOUT: inhibition at 0.1 µM
OBSERVED_RESULT: 89.4
//
STRUCTURE_SMILES: CN1CCN(C(=O)c2ccc(-c3cnc4cnn(S(=O)(=O)c5cnc6ccccn56)c4c3)cc2)CC1
TEST_READOUT: inhibition at 0.1 µM
OBSERVED_RESULT: 60.1
//
STRUCTURE_SMILES: CC(C)(C)OC(=O)N1CCC(n2cc(-c3cnc4cnn(S(=O)(=O)c5cnc6ncccn56)c4c3)cn2)CC1
TEST_READOUT: inhibition at 0.1 µM
OBSERVED_RESULT: 24.5
//
STRUCTURE_SMILES: CCOc1cccc(-c2cnc3cnn(S(=O)(=O)c4cnc5ccc([N+](=O)[O-])cn45)c3c2)c1
TEST_READOUT: inhibition at 0.1 µM
OBSERVED_RESULT: 48.6
//
STRUCTURE_SMILES: Cn1cc(-c2cnc3cnn(S(=O)(=O)c4cnc5ccc(-c6ccc(C#N)cc6)cn45)c3c2)cn1
TEST_READOUT: inhibition at 0.1 µM
OBSERVED_RESULT: 82.8

a = O=[N+]([O-])c1ccc2ncc(S(=O)(=O)n3ncc4ncc(-c5cc(F)c(F)c(F)c5)cc43)n2c1
b = Cn1cc(-c2cnc3cnn(S(=O)(=O)c4cnc5ncccn45)c3c2)cn1
c = O=S(=O)(c1cnc2ccccn12)n1ncc2ncc(-c3ccc4ccccc4c3)cc21
d = Cn1cc(-c2cnc3cnn(S(=O)(=O)c4cccc(F)c4)c3c2)cn1
Challenge: Sort the 4 compounds by inhibition at 0.1 µM; largest first, smallest last. Returns: the labels arranged in the requested order.
Response given: a, c, b, d

a = CC(C)(C)OC(=O)N1CCC(n2cc(-c3cnc4cnn(S(=O)(=O)c5cnc6ccc(-c7cnn(C8CCN(C(=O)OC(C)(C)C)CC8)c7)cn56)c4c3)cn2)CC1
b = CC(C)C(=O)Oc1ccc2ncc(S(=O)(=O)n3ncc4ncc(-c5cnn(C)c5)cc43)n2c1
Challenge: Quick one: lower inhibition at 0.1 µM, a or b ? Return value: the label identifying the chosen record.
Response given: a
(a: 50.2%, b: 99.4%)

I = O=C(Nc1cnc2cnn(S(=O)(=O)c3cnc4ccc(Br)cn34)c2c1)c1ccccc1
II = COc1ccc(-c2ccc3ncc(S(=O)(=O)n4ncc5ncc(-c6cnn(C)c6)cc54)n3c2)cc1
III = Cn1cc(-c2cnc3cnn(S(=O)(=O)c4cnn5cccnc45)c3c2)cn1
Challenge: Sort the 3 compounds by inhibition at 0.1 µM; largest first, smallest last. Returns: the labels arranged in the requested order.
Response given: I, II, III
(I: 75.1%, II: 45.3%, III: 24.9%)

1 = Cn1cc(-c2ccc3ncc(S(=O)(=O)n4ncc5ncc(C6=CCN(C7CCCC7)CC6)cc54)n3c2)cn1
2 = O=S(=O)(c1cnc2ccc(C(F)(F)F)cn12)n1ncc2ncc(-c3cnn(C4CCNCC4)c3)cc21
Challenge: Quick one: lower inhibition at 0.1 µM, 1 or 2 ? Return value: the label identifying the chosen record.
Response given: 2
(2: 60.8%, 1: 87.4%)

a = CC(C)N1CC=C(c2cnc3cnn(S(=O)(=O)c4cnc5ccc(-c6cnn(C)c6)cn45)c3c2)CC1
b = O=C(c1ccc(C(F)(F)F)cc1)N1CCC(n2cc(-c3cnc4cnn(S(=O)(=O)c5cnc6ccccn56)c4c3)cn2)CC1
Challenge: Task for the reader: decide whether a or b has the larger inhibition at 0.1 µM. Return value: the label identifying the chosen record.
Response given: a
(a: 91.6%, b: 52.8%)
